- test-description: Therapeutic index, ratio of GI50 for uninfected BHK cells to EC50 for luciferase reporting full length Yellow fever virus
- Format: cell-based
- assay-conditions: hamster, read-out: TI
So basically, the class depends on measured selectivity ratio, and the ranges are lower range (below 2), middle range (2 to below 20), upper range (20 or more)

Field: example entries. Status: answers known.
COC(=O)c1sc(-c2ccc(C(F)(F)F)cc2)nc1C(Br)Br: upper range
CCCCc1ccc(-c2nc(C)c(C(=O)OC)s2)cc1: upper range
COC(=O)c1sc(-c2ccc(Br)cc2)nc1C(Br)Br: upper range
CCCc1ccc(-c2nc(C)c(C(=O)OC)s2)cc1: middle range
CCCCc1ccc(-c2nc(C)c(C(=O)SC)s2)cc1: lower range

Request: Bin this entry: COC(=O)c1sc(-c2cccc(Br)c2)nc1C(Br)Br
Result: lower range

Request: Sort into band: CCCCc1ccc(-c2nc(C)c(/C(C)=N/NC(=N)N)s2)cc1
Result: upper range

Request: Where would CCCCc1ccc(-c2nc(C)c(C(C)=O)s2)cc1 land among the classes by reported selectivity ratio?
Result: middle range

Request: # bin label for CCCCCc1ccc(-c2nc(C)c(C(=O)OC)s2)cc1
Result: lower range
